// data source = ChEMBL document CHEMBL3507680

measurement description: Human HepG2 cell viability assay in 384 well format
Format: toxicity, cell-based
Design: dose 125 nL, time 70.5 hour; concentration not given beside the values
test settings: HepG2 cells, read-out: Inhibition

>  <compound>
Cc1cccc(CNC(=O)CNc2cc(CO)ccc2Cl)c1

>  <cytotoxicity at 70.5 h (%)>
-3.8

$$$$
>  <compound>
Cc1cccnc1NC(=O)c1ccc(F)c(S(=O)(=O)NC2CC2)c1

>  <cytotoxicity at 70.5 h (%)>
-2.44

$$$$
>  <compound>
Cc1cc(C[S+]([O-])CC(=O)NCc2cccc(Cl)c2)no1 (stereo unspecified)

>  <cytotoxicity at 70.5 h (%)>
-10.3

$$$$
>  <compound>
Cc1nnsc1C(=O)NCc1cccnc1N1CCc2ccccc2C1

>  <cytotoxicity at 70.5 h (%)>
16.7

$$$$
>  <compound>
Cc1nc(C)n(CCNC2CCN(c3ncnc4c(C)csc34)CC2)n1

>  <cytotoxicity at 70.5 h (%)>
-5.4

$$$$
>  <compound>
CN(C)C(=O)CN1CCC2(CCN(S(C)(=O)=O)CC2)C1=O

>  <cytotoxicity at 70.5 h (%)>
-0.161

$$$$
>  <compound>
O=C(c1ccn(-c2ccccc2)n1)N1CCCC(n2cccn2)C1 (stereo unspecified)

>  <cytotoxicity at 70.5 h (%)>
-0.6

$$$$
>  <compound>
Cc1nn(-c2ccccc2)c2nc(C(C)(C)CN3CCN(C)CC3)[nH]c12

>  <cytotoxicity at 70.5 h (%)>
-1.61

$$$$
>  <compound>
Cc1n[nH]c(C)c1-c1cc(-c2ccc[nH]2)nc(N)c1C#N

>  <cytotoxicity at 70.5 h (%)>
-10.2

$$$$
>  <compound>
O=C(COCCOc1ccccc1)Nc1ccnn1CC1CCOC1 (stereo unspecified)

>  <cytotoxicity at 70.5 h (%)>
-21.2

$$$$
>  <compound>
COc1cc(C2CC(=O)Nc3c2nc2n3CCCC2)cc2c1OCO2 (stereo unspecified)

>  <cytotoxicity at 70.5 h (%)>
-12

$$$$

----------
cytotoxicity at 70.5 h overview
measurement description: Human HepG2 cell viability assay in 384 well format
Assay type: toxicity, cell-based
Set-up: dose 125 nL, time 70.5 hour; concentration not given beside the values
test settings: HepG2 cells, read-out: Inhibition

>  <compound>
CNC(=O)CNC1CC2(CCN(c3ncccn3)CC2)c2ccccc21 (configuration not stated)

>  <unit name>
%

>  <cytotoxicity at 70.5 h>
-9.1

$$$$
>  <compound>
Cc1ccc(N2CCCC(Nc3nn4cc(C)nc4s3)C2)nn1 (configuration not stated)

>  <unit name>
%

>  <cytotoxicity at 70.5 h>
-9.29

$$$$
>  <compound>
CC(C)Nc1ccc(-c2ccnc3c2ccn3C)nn1

>  <unit name>
%

>  <cytotoxicity at 70.5 h>
15.5

$$$$
>  <compound>
CCN1CCCN(C(=O)c2ccc(NC(=O)CC(C)C)c(C)c2)CC1

>  <unit name>
%

>  <cytotoxicity at 70.5 h>
-12.9

$$$$
>  <compound>
Cc1ccc(Cn2cc(C)c(N)n2)cc1

>  <unit name>
%

>  <cytotoxicity at 70.5 h>
22.1

$$$$
>  <compound>
CN1CCCN(C(=O)c2cc3c(s2)CCN3C(=O)C2CC2)CC1

>  <unit name>
%

>  <cytotoxicity at 70.5 h>
-3.39

$$$$
>  <compound>
Cc1cnn(CC2CCCN2Cc2nc(C)c3ccccc3n2)c1 (configuration not stated)

>  <unit name>
%

>  <cytotoxicity at 70.5 h>
1.46

$$$$
>  <compound>
Cc1nc(CN2CCN(CC3CCOC3)Cc3cccnc32)cs1 (configuration not stated)

>  <unit name>
%

>  <cytotoxicity at 70.5 h>
-8.4

$$$$
>  <compound>
COc1ccc2c(c1)nc1n2[C@@H](CNCc2ncccc2C)COC1

>  <unit name>
%

>  <cytotoxicity at 70.5 h>
-5.69

$$$$
>  <compound>
CCC(C#N)NC(=O)c1cc(Br)c2c(c1)OCCO2 (configuration not stated)

>  <unit name>
%

>  <cytotoxicity at 70.5 h>
-9.18

$$$$
>  <compound>
Cc1cccc(OC2CCN(c3nc(N)nc4[nH]cnc34)CC2)c1

>  <unit name>
%

>  <cytotoxicity at 70.5 h>
-1.39

$$$$
>  <compound>
OC(CNCc1ccccc1C(F)(F)F)c1ccccc1 (configuration not stated)

>  <unit name>
%

>  <cytotoxicity at 70.5 h>
-5.57

$$$$
